// data source = ChEMBL document CHEMBL1152250

# system.tested: Receptor-type tyrosine-protein kinase FLT3 (Homo sapiens, UniProt P36888)
# Sequence (P36888 whole entry): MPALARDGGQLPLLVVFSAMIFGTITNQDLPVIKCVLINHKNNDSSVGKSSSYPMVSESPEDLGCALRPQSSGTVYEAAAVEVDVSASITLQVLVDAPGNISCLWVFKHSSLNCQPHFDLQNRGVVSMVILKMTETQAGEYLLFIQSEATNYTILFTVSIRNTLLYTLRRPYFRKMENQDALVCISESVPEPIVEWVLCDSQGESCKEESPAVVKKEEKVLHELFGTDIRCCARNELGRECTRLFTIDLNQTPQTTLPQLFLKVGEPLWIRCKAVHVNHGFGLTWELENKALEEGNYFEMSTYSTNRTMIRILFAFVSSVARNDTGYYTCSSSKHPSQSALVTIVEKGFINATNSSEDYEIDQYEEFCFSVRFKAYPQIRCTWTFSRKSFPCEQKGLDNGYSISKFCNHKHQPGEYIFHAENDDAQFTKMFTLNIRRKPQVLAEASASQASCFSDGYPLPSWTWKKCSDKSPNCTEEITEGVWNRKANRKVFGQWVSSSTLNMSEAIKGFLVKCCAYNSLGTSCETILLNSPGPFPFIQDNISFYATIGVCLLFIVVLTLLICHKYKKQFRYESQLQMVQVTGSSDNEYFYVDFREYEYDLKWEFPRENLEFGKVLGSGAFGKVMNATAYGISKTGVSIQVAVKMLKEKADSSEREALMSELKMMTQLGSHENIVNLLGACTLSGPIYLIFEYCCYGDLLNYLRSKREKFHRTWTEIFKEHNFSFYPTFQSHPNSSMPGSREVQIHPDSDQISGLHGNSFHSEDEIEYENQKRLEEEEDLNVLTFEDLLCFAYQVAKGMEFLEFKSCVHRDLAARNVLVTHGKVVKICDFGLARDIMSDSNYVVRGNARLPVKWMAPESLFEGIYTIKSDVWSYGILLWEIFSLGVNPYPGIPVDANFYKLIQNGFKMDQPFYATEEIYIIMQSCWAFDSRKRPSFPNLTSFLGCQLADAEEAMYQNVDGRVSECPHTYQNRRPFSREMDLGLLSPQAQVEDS
# protocol.text: Inhibition of GST-tagged FLT3 by ELISA
Here the recorded pIC50 is given for each entry.
// field semantics: pIC50 = negative decimal log of concentration (mol/L)

Reference set (2 entries):
- mol.smiles: "Oc1cccc(Nc2nc(NCCc3ccncc3)ncc2-c2nnc(C3CC3)o2)c1"
  measured.result: 7.47
- mol.smiles: "OCCNc1nc(NCCc2ccncc2)ncc1-c1nnc(C2CC2)o1"
  measured.result: 7.20

Now, please, on to the next compound.
Prompt: Query: pIC50; subject: CCCNc1nc(NCCc2ccncc2)ncc1-c1nnc(C2CC2)o1
Response: 8.31
